Test system: EpiAirway™ human-derived tracheal/bronchial epithelial cells
test_details: Transepithelial electrical resistance (TER) across EpiAirway epithelial cell layer
Format: cell-based
setup_conditions: 100 μM peptide
Each record here notes measured TER reduction.

| substance | system_tested | TER reduction (%) |
| --- | --- | --- |
| H-RRRQRRKRGGDIMGEWGNEIFGAIAGFLG-NH2 [PN250] | EpiAirway™ human-derived tracheal/bronchial epithelial cells | 58 |
| Maleimide-GLGSLLKKAGKLKLKQPKSKRKV-amide [PN283] | EpiAirway™ human-derived tracheal/bronchial epithelial cells | 39 |
| H-LLETLLKPFQCRICMRNFSTRQARRNHRRRHRR-NH2 (cysteine pairing not given here) [PN202] | EpiAirway™ human-derived tracheal/bronchial epithelial cells | 95 |
| H-KETWWETWWTEWSQPGRKKRRQRRRRPPQ-NH2 [PN183] | EpiAirway™ human-derived tracheal/bronchial epithelial cells | 25 |
| H-KLWSAWPSLWSSLWKP-NH2 [PN228] | EpiAirway™ human-derived tracheal/bronchial epithelial cells | 9 |

Data provenance: patent US20090220435A1
